Task for the reader: assign each of the following compounds its reported body Weight (g) Before ad..
# assay remarks: Body weight of S180 sarcoma-bearing mice
# run conditions: mouse, in vivo, iv
Quick reminder: number only, in g, skip the unit.

Provide measured body Weight (g) Before ad. value, entry: COC(=O)/C(C)=C\CC12OC(C)(C)C3CC(C1=O)C1C4=C(c5ccccc5C4=O)N4CCNC45c4c(O)c6c(c(CC=C(C)C)c4OC32C15)OC(C)(CCC=C(C)C)C=C6 (centres unmarked) 20.75

Provide measured body Weight (g) Before ad. value, entry: COC(=O)/C(C)=C\CC12OC(C)(C)C3CC(C1=O)C1C4=C(Nc5nccn51)c1c(O)c5c(c(CC=C(C)C)c1OC432)OC(C)(CCC=C(C)C)C=C5 (centres unmarked) 20.53

Provide measured body Weight (g) Before ad. value, entry: COC(=O)/C(C)=C\CC12OC(C)(C)C3CC(C=C4C(=O)c5c(OC(=O)CCC(=O)N6CCN(C)CC6)c6c(c(CC=C(C)C)c5OC431)OC(C)(CCC=C(C)C)C=C6)C2=O (centres unmarked) 19.92

Provide measured body Weight (g) Before ad. value, entry: COC(=O)/C(C)=C\CC12OC(C)(C)C3CC(C1=O)C1C4=C(Nc5nccn51)c1c(OCCNCCO)c5c(c(CC=C(C)C)c1OC432)OC(C)(CCC=C(C)C)C=C5 (centres unmarked) 20.08

Provide measured body Weight (g) Before ad. value, entry: COC(=O)/C(C)=C\CC12OC(C)(C)[C@H]3C[C@@H](C=C4C(=O)c5c(OC(=O)c6ccc(O[C@@H]7O[C@@H]8COC(C)(C)O[C@H]8[C@H](O)[C@H]7O)cc6)c6c(c(CC=C(C)C)c5OC431)OC(C)(CCC=C(C)C)C=C6)C2=O (some centres unmarked) 21.53

====

# assay remarks: Body weight of S180 sarcoma-bearing mice
# run conditions: mouse, in vivo, iv
Task for the reader: assign each of the following molecules its reported body Weight (g) Before ad..
Quick reminder: number only, in g, skip the unit.

Provide measured body Weight (g) Before ad. value, entry: COC(=O)/C(C)=C\CC12OC(C)(C)C3CC(C1=O)C1C4=C(Nc5ncnn51)c1c(O)c5c(c(CC=C(C)C)c1OC432)OC(C)(CCC=C(C)C)C=C5 (stereo not drawn) 20.16

Provide measured body Weight (g) Before ad. value, entry: COC(=O)/C(C)=C\CC12OC(C)(C)C3CC(C1=O)C1C4=C(c5ccccc5C4=O)N(CCN)C4=C1C32Oc1c(CC=C(C)C)c2c(c(O)c14)C=CC(C)(CCC=C(C)C)O2 (stereo not drawn) 19.34

Provide measured body Weight (g) Before ad. value, entry: COC(=O)/C(C)=C\CC12OC(C)(C)C3CC(C1=O)C1C4=C(Nc5nc6ccccc6n51)c1c(O)c5c(c(CC=C(C)C)c1OC432)OC(C)(CCC=C(C)C)C=C5 (stereo not drawn) 20.32

====

# Tested on: human lung cancer cell line NCI-H460
# assay remarks: In vitro anti-cancer cell experiment (MTT), NCI-H460
# Type: cell-based
# run conditions: NCI-H460 cells, 48 hours, MTT, read-out: IC50 NCI-H460
Task for the reader: assign each of the following compounds its reported pIC50.
Interpret pIC50 as the negative base-10 log of the concentration measured in mol/L.

Provide measured pIC50 value, entry: COC(=O)/C(C)=C\CC12OC(C)(C)[C@H]3C[C@@H](C=C4C(=O)c5c(OC(=O)c6ccc(O[C@@H]7O[C@@H]8COC(C)(C)O[C@H]8[C@H](O)[C@H]7O)cc6)c6c(c(CC=C(C)C)c5OC431)OC(C)(CCC=C(C)C)C=C6)C2=O (some centres unmarked) 8.11

Provide measured pIC50 value, entry: COC(=O)/C(C)=C\CC12OC(C)(C)C3CC(C1=O)C1C4=C(Nc5nc6ccccc6n51)c1c(O)c5c(c(CC=C(C)C)c1OC432)OC(C)(CCC=C(C)C)C=C5 (centres unmarked) 7.76

Provide measured pIC50 value, entry: COC(=O)/C(C)=C\CC12OC(C)(C)C3CC(C1=O)C1C4=C(Nc5nccn51)c1c(O)c5c(c(CC=C(C)C)c1OC432)OC(C)(CCC=C(C)C)C=C5 (centres unmarked) 8.47

Provide measured pIC50 value, entry: COC(=O)/C(C)=C\CC12OC(C)(C)C3CC(C1=O)C1C4=C(c5ccccc5C4=O)N(CCN)C4=C1C32Oc1c(CC=C(C)C)c2c(c(O)c14)C=CC(C)(CCC=C(C)C)O2 (centres unmarked) 8.31

Provide measured pIC50 value, entry: COC(=O)/C(C)=C\CC12OC(C)(C)C3CC(C1=O)C1C4=C(Nc5nccn51)c1c(O[C@H]5O[C@@H](CO)[C@H](O)[C@@H](O)[C@@H]5O)c5c(c(CC=C(C)C)c1OC432)OC(C)(CCC=C(C)C)C=C5 (some centres unmarked) 7.86
